# test.method.notes: physchem
Positions of bridges follow the written chain, without caps; N, C: chain ends. Non-standard residues stand in square brackets, D forms with d. Residues, ends and D or L forms follow the SMILES beside them. R8 = C=CCCCCCC[C@@](C)(N)C(=O)O; Cba = N[C@@H](CC1CCC1)C(=O)O; S5 = C=CCCC[C@](C)(N)C(=O)O
measured.endpoint: EPSA
In your response, the unit should come after the numeric value.

Query block: Note EPSA for the compound shown: CC(=O)N[C@@H](CCCCN=[N+]=[N-])C(=O)NCCC(=O)N[C@@H](CC(C)C)C(=O)N[C@H](C(=O)N[C@@H](Cc1ccccc1)C(=O)N[C@]1(C)CCCCCCC=CCCC[C@@](C)(C(=O)N[C@@H](CO)C(=O)N[C@@H](C)C(=O)N[C@@H](C)C(N)=O)NC(=O)[C@H](CC2CCC2)NC(=O)C(C)(C)NC(=O)[C@H](C)NC(=O)[C@H](Cc2c[nH]c3ccccc23)NC(=O)[C@H](Cc2ccc(O)cc2)NC(=O)[C@H](CCC(=O)O)NC1=O)[C@@H](C)O
Result block: 222 A^2

Query block: Given CC(=O)N[C@@H](CC(C)C)C(=O)N[C@H](C(=O)N[C@@H](Cc1ccccc1)C(=O)N[C@]1(C)CCCCCCC=CCCC[C@@](C)(C(=O)N[C@@H](CO)C(=O)N[C@@H](C)C(=O)N[C@@H](C)C(N)=O)NC(=O)[C@H](CC2CCC2)NC(=O)[C@H](CC(C)C)NC(=O)[C@H](CCCNC(=N)N)NC(=O)[C@H](Cc2c[nH]c3ccccc23)NC(=O)[C@H](Cc2ccc(O)cc2)NC(=O)[C@H](CCC(=O)O)NC1=O)[C@@H](C)O [MP-194] (Ac-LTF[R8]EYWRL[Cba][S5]SAA-NH2; staple 4-11) , respond with its EPSA.
Result block: 210 A^2

All figures here come from paper PMC10786919.
